Origin of values: PubChem BioAssay (NCI)

# MEASUREMENT_PROTOCOL: NCI Yeast Anticancer Drug Screen. Data for the mec2-1 strain (AID 157)
# CONDITION_LABEL: S. cerevisiae mec2-1 strain, at 50.0 µM (retest, dose inferred, filed as 5.0)
# Procedure: Growth inhibition of yeast strains with defined genetic alterations is measured as a screen for potential anti-cancer activity. Selected strains with alterations in DNA damage repair or cell cycle control were exposed to compounds and growth inhibition was measured relative to vehicle treated controls. The strain used in this assay is mec2-1
The panel holds about 79,000 compounds, 15% with a hit somewhere; the sample as a whole holds those more often. Calls of active or inactive are those of the source. Rule as the data show it: active = growth inhibition above about 70%; inactive = the rest.
Return exactly one item of active, inactive

As a guide, the following entries are already answered.
| MOLECULE | ASSIGNED_CATEGORY |
| --- | --- |
| CCCCOCn1c(=O)[nH]c(=O)c2cc(Br)ccc21 | inactive |
| S=c1[nH]c2cc3ccccc3cc2[nH]1 | inactive |
| O=C1c2cccnc2C(=O)C2C3C=CC(C3)C12 (stereo not given) | active |
| C=C(Cl)COC(=O)Nc1cccc(Cl)c1 | inactive |
| Clc1ccc(NCNC2Nc3ccccc3N2)cc1Cl | active |
| COc1ccc(N=CN(C)C)c(C)c1 | active |
| O=C1CC(=O)c2ccccc21 | inactive |
| Cn1c(-c2ccc(/C=N\N3CCN(/N=C/c4ccc(-c5c[n+]6ccccc6n5C)cc4)CC3)cc2)c[n+]2ccccc12 | active |
| CCCC(O)C1CC(C(C)C)CCC1C (stereo not given) | inactive |
| COc1nc2c(c(=O)n1C)N=C(c1ccccc1)[C@H](C(CC(=O)c1ccccc1)c1ccccc1)C(c1ccccc1)N2 (stereo not given in full) | active |

Dear colleague, could you share the recorded outcome for `Nc1ccc2c(c1)C(=O)c1ccc(F)cc1-2` when you have a moment? inactive

Lab log entry: `Cc1c(C)c(C)c(CSC(=N)N)c(C)c1C` — outcome as called in the assay? active

Hello, I am checking results. What call was entered for `CCOC1(c2cccc([N+](=O)[O-])c2)c2ccccc2Oc2ccccc21` ? inactive

Any idea what this test logged for `COC(=O)/C=C(/C(=O)OC)C(Cl)(Cl)Cl` ? active

# outcome recorded in this test, key = CC(NCCN(C)C)C1CCC2C3CCc4cc(O)ccc4C3CCC12C (stereo not given) inactive
